tested on: Escherichia coli TOP10; test: shrunken log2 fold change of peptide-encoding DNA abundance (4.5 h post-induction vs induction); higher = less antimicrobial activity (less host growth inhibition); settings: time post-induction: 4.5 h; library: site-saturation at positions 5, 18, 19, 20
What shrunken log2 fold change was measured for each of the following?
Numbers only.

Record excerpt, results attached:
>>> reported_value("RRIRMRPPRLPRPRPRPYSQPRP")
-0.0394
>>> reported_value("RRIRSRPPRLPRPRPRPKKRPRP")
0.716
>>> reported_value("RRIRMRPPRLPRPRPRPSAWPRP")
1.75
>>> reported_value("RRIRARPPRLPRPRPRPMAVPRP")
0.209
>>> reported_value("RRIRERPPRLPRPRPRPLRNPRP")
0.308
>>> reported_value("RRIRARPPRLPRPRPRPMREPRP")
0.844
>>> reported_value("RRIRHRPPRLPRPRPRPLHWPRP")
0.0266
>>> reported_value("RRIRLRPPRLPRPRPRPHPMPRP")
-0.173

Provide each entry's shrunken log2 fold change from the list below.
1. RRIRSRPPRLPRPRPRPLDWPRP
2. RRIRPRPPRLPRPRPRPHCEPRP
3. RRIRARPPRLPRPRPRPFADPRP
4. RRIRMRPPRLPRPRPRPQYHPRP
5. RRIRPRPPRLPRPRPRPDAKPRP
6. RRIRSRPPRLPRPRPRPWGIPRP
7. RRIRFRPPRLPRPRPRPTYAPRP

[0.262, 0.308, 0.438, -0.299, 0.201, -0.118, -0.203]

---

system: Escherichia coli TOP10; assay: shrunken log2 fold change of peptide-encoding DNA abundance (4.5 h post-induction vs induction); higher = less antimicrobial activity (less host growth inhibition); conditions: time post-induction: 4.5 h; library: site-saturation at positions 5, 18, 19, 20
Classes by shrunken log2 fold change: c1 = under -0.2, c2 = from -0.2 up to 0.2, c3 = 0.2 and over

Please review the entries below; each comes with its answer.
>>> group("RRIRYRPPRLPRPRPRPDPPPRP")
"c2"
>>> group("RRIRSRPPRLPRPRPRPDMEPRP")
"c2"
>>> group("RRIRMRPPRLPRPRPRPMPRPRP")
"c3"

Class? Entry: RRIRNRPPRLPRPRPRPPGYPRP c3

Lab note: which band did RRIRVRPPRLPRPRPRPTGYPRP land in? c1

Kindly identify the class of RRIRFRPPRLPRPRPRPNHRPRP . c1

Looking at RRIRHRPPRLPRPRPRPTSVPRP , which class would you pick? c2

---

test system: Escherichia coli TOP10; test: shrunken log2 fold change of peptide-encoding DNA abundance (4.5 h post-induction vs induction); higher = less antimicrobial activity (less host growth inhibition); settings: time post-induction: 4.5 h; library: site-saturation at positions 5, 18, 19, 20;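 further: peptides expressed intracellularly from a pBAD plasmid library in pooled LB shake-flask culture, induced with 0.3% L-arabinose, DNA abundance read by NGS, three biological replicates, DESeq2 with apeglm shrinkage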
PROPERTY_LABEL: shrunken log2 fold change
Give bare numbers.

The cases that follow already have their shrunken log2 fold change on record.
>>> reported_value("RRIRARPPRLPRPRPRPTETPRP")
1.11
>>> reported_value("RRIRYRPPRLPRPRPRPVFSPRP")
-0.303
>>> reported_value("RRIRWRPPRLPRPRPRPRTIPRP")
-0.0129
>>> reported_value("RRIRFRPPRLPRPRPRPDSRPRP")
0.391
>>> reported_value("RRIRVRPPRLPRPRPRPSEVPRP")
-0.138

# per-item lookup of shrunken log2 fold change; items listed below
1. RRIRPRPPRLPRPRPRPMCGPRP
2. RRIRFRPPRLPRPRPRPKDRPRP
3. RRIRRRPPRLPRPRPRPLFIPRP
4. RRIRLRPPRLPRPRPRPTPMPRP
5. RRIRHRPPRLPRPRPRPKHDPRP
6. RRIRQRPPRLPRPRPRPWMQPRP
7. RRIRPRPPRLPRPRPRPMKWPRP
8. RRIRFRPPRLPRPRPRPADSPRP

[-0.252, 0.148, -0.27, 0.143, -0.363, -0.062, 0.291, -0.187]

Could you tell me shrunken log2 fold change for each of these sequences? They are listed below.
1. RRIRSRPPRLPRPRPRPHPCPRP
2. RRIRCRPPRLPRPRPRPSIAPRP

1: 0.0687; 2: -0.3
